# maps each entry to its pIC50
# Target Entity: 3',5'-cyclic-AMP phosphodiesterase 4D (Homo sapiens)
# Sequence (Q08499 whole entry): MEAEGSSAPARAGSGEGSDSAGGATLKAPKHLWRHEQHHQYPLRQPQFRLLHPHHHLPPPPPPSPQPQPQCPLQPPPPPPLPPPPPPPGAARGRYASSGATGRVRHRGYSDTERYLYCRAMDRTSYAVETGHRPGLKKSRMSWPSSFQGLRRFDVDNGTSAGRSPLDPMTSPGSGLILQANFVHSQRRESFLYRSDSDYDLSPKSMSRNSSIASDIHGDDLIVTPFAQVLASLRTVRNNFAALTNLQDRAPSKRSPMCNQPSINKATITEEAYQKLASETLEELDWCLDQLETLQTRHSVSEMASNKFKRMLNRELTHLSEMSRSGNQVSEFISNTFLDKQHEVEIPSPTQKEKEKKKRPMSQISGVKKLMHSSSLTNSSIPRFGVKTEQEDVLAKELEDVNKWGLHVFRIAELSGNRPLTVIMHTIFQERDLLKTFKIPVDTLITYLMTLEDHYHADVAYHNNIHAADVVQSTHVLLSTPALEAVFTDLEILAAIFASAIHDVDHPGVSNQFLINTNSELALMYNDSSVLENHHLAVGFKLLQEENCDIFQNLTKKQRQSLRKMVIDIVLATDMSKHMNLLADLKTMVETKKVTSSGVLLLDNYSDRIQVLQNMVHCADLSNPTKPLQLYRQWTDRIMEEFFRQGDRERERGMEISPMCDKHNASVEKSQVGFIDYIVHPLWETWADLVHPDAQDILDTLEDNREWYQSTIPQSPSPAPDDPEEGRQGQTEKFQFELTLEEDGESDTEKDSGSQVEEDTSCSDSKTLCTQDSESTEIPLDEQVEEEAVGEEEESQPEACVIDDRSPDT
# Protocol: Inhibition of PDE4D (unknown origin)
pIC50: −log10 of the molar value.

- Compound: "Cc1ccc(O)c(C(=O)N[C@H]2CC[C@@H](NC(=O)c3cc(F)cnc3Oc3ccc(F)c(F)c3)CC2)c1"
  pIC50: 9.42
- Compound: "CC1CN(C(=O)CO/N=C/c2ccc(OC(F)F)c(OC3CCCC3)c2)CC(C)O1 (configuration not stated)"
  pIC50: 6.10

* * *

# Target Entity: 3',5'-cyclic-AMP phosphodiesterase 4A (Homo sapiens, UniProt P27815)
# Sequence (P27815 whole entry): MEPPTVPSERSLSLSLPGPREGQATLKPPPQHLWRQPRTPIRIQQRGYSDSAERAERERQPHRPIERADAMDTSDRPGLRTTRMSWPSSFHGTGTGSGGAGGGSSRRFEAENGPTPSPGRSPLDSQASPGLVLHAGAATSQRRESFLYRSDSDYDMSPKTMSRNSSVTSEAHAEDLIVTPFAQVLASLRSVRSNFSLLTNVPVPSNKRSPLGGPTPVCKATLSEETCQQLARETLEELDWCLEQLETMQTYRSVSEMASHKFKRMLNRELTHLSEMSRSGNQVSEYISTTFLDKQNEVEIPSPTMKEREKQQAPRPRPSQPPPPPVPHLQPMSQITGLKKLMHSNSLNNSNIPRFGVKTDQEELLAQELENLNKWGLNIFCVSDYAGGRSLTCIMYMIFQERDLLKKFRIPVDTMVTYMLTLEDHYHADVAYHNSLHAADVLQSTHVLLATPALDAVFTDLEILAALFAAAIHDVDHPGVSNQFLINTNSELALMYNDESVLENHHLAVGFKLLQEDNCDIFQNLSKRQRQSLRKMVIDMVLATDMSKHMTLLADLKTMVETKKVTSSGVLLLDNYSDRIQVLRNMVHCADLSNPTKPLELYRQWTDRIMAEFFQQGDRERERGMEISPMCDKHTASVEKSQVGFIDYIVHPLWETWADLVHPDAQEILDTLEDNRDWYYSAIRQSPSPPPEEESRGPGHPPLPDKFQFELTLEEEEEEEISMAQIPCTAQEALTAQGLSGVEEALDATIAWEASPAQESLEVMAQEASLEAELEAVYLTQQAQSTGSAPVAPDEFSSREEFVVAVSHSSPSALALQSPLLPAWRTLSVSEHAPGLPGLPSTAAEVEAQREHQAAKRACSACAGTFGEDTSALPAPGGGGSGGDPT
# Protocol: Inhibition of PDE4A (unknown origin)
Assay Metric: IC50

- Compound: "Cc1ccc(O)c(C(=O)N[C@H]2CC[C@@H](NC(=O)c3cc(F)cnc3Oc3ccc(F)c(F)c3)CC2)c1 [UK-500001]"
  Target Entity: "3',5'-cyclic-AMP phosphodiesterase 4A (Homo sapiens, UniProt P27815)"
  Assay Metric: "IC50"
  Experimental Result: "0.38 nM"

* * *

# Target Entity: Phosphodiesterase 4 (Homo sapiens, UniProt P27815+Q08499+Q07343+Q08493)
# Protocol: Inhibition of PDE4 (unknown origin)
# Type: protein assay
# maps each entry to its IC50

- Molecule: "NS(=O)(=O)c1cccc(-c2c(-c3ccccc3)nc(C(F)(F)F)nc2N2CCOCC2)c1"
  Target Entity: "Phosphodiesterase 4 (Homo sapiens, UniProt P27815+Q08499+Q07343+Q08493)"
  IC50 / nM: 7
- Molecule: "O=C(Nc1c(Cl)c[n+]([O-])cc1Cl)c1ccc(OC(F)F)c2oc3ccncc3c12"
  Target Entity: "Phosphodiesterase 4 (Homo sapiens, UniProt P27815+Q08499+Q07343+Q08493)"
  IC50 / nM: 3
- Molecule: "O=C(NC1CC1)c1cn(-c2cccc(-c3ccc([C@@H]4C[C@H]4C(=O)O)c(F)c3)c2)c2ncccc2c1=O"
  Target Entity: "Phosphodiesterase 4 (Homo sapiens, UniProt P27815+Q08499+Q07343+Q08493)"
  IC50 / nM: 0.6
- Molecule: "O=C(Nc1c(Cl)cncc1Cl)C(=O)c1cn(Cc2ccc(F)cc2)c2ncccc12"
  Target Entity: "Phosphodiesterase 4 (Homo sapiens, UniProt P27815+Q08499+Q07343+Q08493)"
  IC50 / nM: 3
- Molecule: "COc1ccc(C(Cc2c(Cl)cncc2Cl)OC(=O)c2ccc(OC(F)F)c(OCC3CC3)c2)cc1OC (configuration not stated)"
  Target Entity: "Phosphodiesterase 4 (Homo sapiens, UniProt P27815+Q08499+Q07343+Q08493)"
  IC50 / nM: 0.2
- Molecule: "CCOc1ccc(-c2nc(-c3cccc(C(=O)O)n3)cs2)cc1OCC"
  Target Entity: "Phosphodiesterase 4 (Homo sapiens, UniProt P27815+Q08499+Q07343+Q08493)"
  IC50 / nM: 74
- Molecule: "O=C(O/C(=C\\c1c(Cl)cncc1Cl)c1ccc(OC(F)F)c(OCC2CC2)c1)c1ccc(OC(F)F)c(OCC2CC2)c1"
  Target Entity: "Phosphodiesterase 4 (Homo sapiens, UniProt P27815+Q08499+Q07343+Q08493)"
  IC50 / nM: 0.9

* * *

# Protocol: Inhibition of human platelet derived PDE3
pIC50: −log10 of the molar value.
Assay Metric: pIC50

- Sample Smiles: "CCOc1cc2c(cc1OC)C(c1ccc(C(=O)N(C(C)C)C(C)C)cc1)=N[C@@H]1CCN(C)C[C@H]21"
  Experimental Result: 7.55
